Sourced from PubChem BioAssay (NCI)

system: U251 CNS; assay: NCI-60 one-dose screen, 48 h; settings: 10 µM unless noted
This is part of a sample that, as a whole, favours compounds with a hit. Of some 83,000 tested, about 20% had one in any assay. Active and inactive are the calls of the source. How the source made its calls: active means growth percent below 10; inactive means the rest.
Output constraint: value belongs to Y for active, N for inactive

Study these solved cases before continuing.
>>> cat("COc1cc(-c2nn(-c3cccc(NC(=O)Nc4ccc(Cl)c(Cl)c4)c3)cc2-c2ccncc2)ccc1Cl")
"Y"
>>> cat("CC(C)(C)n1cc(-c2ccnc(NCCCNS(=O)(=O)c3ccc(Cl)cc3)c2)c(-c2cccc(O)c2)n1")
"Y"
>>> cat("Clc1cc(Cl)cc(-c2ccc(-c3ccc(/C=N/NC4=NCCN4)cc3)s2)c1")
"Y"
>>> cat("O=C(Nc1ccncc1)C(=O)c1cn(S(=O)(=O)c2ccc(Br)cc2)c2ccccc12")
"N"
>>> cat("CC1CCC(C)N(C)C1 (configuration not stated)")
"N"

Alright, here's another compound for you.
State the result this test recorded for O=C(NNC(=S)Nc1ccccc1)c1cc2ccc1CCc1ccc(cc1)CC2 .
N
